# targetOfAssay: Carbonic anhydrase 2 (Bos taurus)
# methodNotes: Inhibition of bovine carbonic anhydrase 2 assessed as hydrolysis of p-nitrophenyl acetate after 30 mins by spectrophotometric method
# condition: read-out: IC50
pIC50: −log10 of the molar value.
Respond with met for pIC50 values of 7 and above, not met for values below.

// below: answered compounds
1) Cc1ccc(S(=O)(=O)NCCc2ccc(S(N)(=O)=O)cc2)cc1; not met
2) NS(=O)(=O)c1ccc(CNC(=O)c2ccc(F)cc2)cc1; not met
3) Cc1ccc(S(=O)(=O)Nc2ccc(S(N)(=O)=O)cc2)cc1; met

Does `NS(=O)(=O)c1ccc(CCNS(=O)(=O)c2ccc(F)cc2)cc1` have a reported pIC50 of at least 7?
met

# iterate: `NS(=O)(=O)c1ccc(CCNC(=O)c2ccccc2)cc1`
not met

Similarly, `NS(=O)(=O)c1ccc(CNS(=O)(=O)c2ccc(F)cc2)cc1` ?
not met

Next compound: `NS(=O)(=O)c1ccc(CCNC(=O)c2ccc(F)cc2)cc1`
not met

Please answer likewise for `NS(=O)(=O)c1ccc(CNC(=O)c2ccccc2)cc1`
not met

====

# targetOfAssay: Alkaline phosphatase, tissue-nonspecific isozyme (Bos taurus, UniProt P09487)
# Sequence (P09487 whole entry): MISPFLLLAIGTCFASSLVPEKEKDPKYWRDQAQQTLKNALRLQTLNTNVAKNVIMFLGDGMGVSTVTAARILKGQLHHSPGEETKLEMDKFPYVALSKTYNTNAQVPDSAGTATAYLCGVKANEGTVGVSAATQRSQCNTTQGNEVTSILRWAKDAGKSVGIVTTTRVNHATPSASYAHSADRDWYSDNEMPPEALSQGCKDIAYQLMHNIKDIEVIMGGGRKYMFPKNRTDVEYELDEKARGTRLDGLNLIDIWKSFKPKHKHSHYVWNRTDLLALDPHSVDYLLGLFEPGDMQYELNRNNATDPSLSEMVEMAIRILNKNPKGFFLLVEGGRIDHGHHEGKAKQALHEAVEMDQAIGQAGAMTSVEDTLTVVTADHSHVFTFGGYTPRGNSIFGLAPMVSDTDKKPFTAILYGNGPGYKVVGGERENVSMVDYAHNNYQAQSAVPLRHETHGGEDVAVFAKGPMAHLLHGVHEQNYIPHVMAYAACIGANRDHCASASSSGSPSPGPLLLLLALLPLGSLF
pKi: −log10 of the molar value.
Use True when the recorded pKi is no lower than 6; use False when it is lower.

1) NS(=O)(=O)c1cccc(NC(=O)c2ccc(F)cc2)c1; False

State whether the measured pKi reaches 6, counting equality as reaching it, for `Cc1ccc(S(=O)(=O)Nc2ccccc2)cc1`
True

Entry `NS(=O)(=O)c1ccc(NC(=O)c2ccccc2)cc1` please
False

Proceed to `Cc1ccc(S(=O)(=O)NCCc2ccc(S(N)(=O)=O)cc2)cc1`
False

====

# targetOfAssay: Carbonic anhydrase 2 (Bos taurus, UniProt P00921)
# Sequence (P00921 whole entry): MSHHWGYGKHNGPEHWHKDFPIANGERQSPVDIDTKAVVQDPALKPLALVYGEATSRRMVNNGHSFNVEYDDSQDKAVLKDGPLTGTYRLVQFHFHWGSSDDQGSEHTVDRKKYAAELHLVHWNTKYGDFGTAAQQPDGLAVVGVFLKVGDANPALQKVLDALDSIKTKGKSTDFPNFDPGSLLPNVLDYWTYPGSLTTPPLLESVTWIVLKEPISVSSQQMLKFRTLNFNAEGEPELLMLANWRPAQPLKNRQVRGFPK
# methodNotes: Inhibition of bovine carbonic anhydrase 2 assessed as hydrolysis of p-nitrophenyl acetate after 30 mins by spectrophotometric method
# condition: read-out: IC50
Assign pIC50 to each entry below.
Give bare numbers, as −log10 of the molar value.

Solved entries:
1) Cc1ccc(S(=O)(=O)Nc2cccc(S(N)(=O)=O)c2)cc1; 6.82
2) Cc1ccc(S(=O)(=O)NCc2ccc(S(N)(=O)=O)cc2)cc1; 6.87
3) NS(=O)(=O)c1ccc(NS(=O)(=O)c2ccc(F)cc2)cc1; 7.00

Proceeding to the next compound to report its pIC50.
Which pIC50 is listed for `NS(=O)(=O)c1cccc(NS(=O)(=O)c2ccc(F)cc2)c1` ?
7.00
